Cited source: PubChem BioAssay AID1851

# tested on: Cytochrome P450 1A2 (Homo sapiens)
# assay name: Cytochrome panel assay with activity outcomes
# assay conditions: recombinant CYP, pro-luciferin dealkylation, luminescence, p450-cyp1a2; series mostly up to 57.1 µM
Out of some 16,000 compounds screened, about 5,700 (36%) were called active. Another 24% or so got no clear call; they are omitted. Calls come from the whole dose curve; as a rule, active = well fitted curve in the direction sought with a large enough effect; inconclusive = small, poorly fitted or top-dose-only effect, or effect the other way; inactive = no such curve, though single readings can be large or run the other way. The list shows a part of the results.
Outcome codes: true for active, false for inactive

- CSC1=N/C(=C\c2ccc(Br)o2)C(=O)S1: true
- CN(C)C(=O)CN(c1ccc2c(c1)OCO2)S(C)(=O)=O: false
- CC(C)(C)NS(=O)(=O)c1ccc(NC(=O)C(Sc2ccccc2)c2ccccc2)cc1 (configuration not stated): false
- COc1cccc(Nc2ncc3nc(C)c(=O)n(CCc4ccccc4)c3n2)c1: true
- Cc1nc2c(O)cccc2c(=O)[nH]1: true
- CCC(C)c1ccc(Nc2ncccc2C#N)cc1 (configuration not stated): true
- Cc1c(C(=O)Nc2nccs2)sc2nc(-c3cccs3)cc(C(F)(F)F)c12: true
- COCCn1c(=O)c(C)nc2cnc(Nc3cccc(OC)c3)nc21: true
- CCCCCn1c(SCc2ccncc2)nc2cc(C(=O)NCc3ccco3)ccc2c1=O: true
- CSc1nc(O)c(Cc2ccccc2)c(=O)[nH]1: false
- COc1cccc(-c2ccc3ncnc(NC4CCNCC4)c3c2)c1: true
- Cc1cnc(CNc2cc(-c3cccc(C#N)c3)ncn2)cn1: true
- CCCCn1nc2cc(C(=O)NCC3CC3)ccc2c1OCC: false
- CS(=O)(=O)Nc1cccc(-c2cncnc2NCc2cccs2)c1: true
- CS(=O)(=O)c1ccccc1-c1nc(-c2cc(C(F)(F)F)cc(C(F)(F)F)c2)no1: false
- Cn1c(N)c(C(=O)CSc2ccc3c(c2)OCCO3)c(=O)n(C)c1=O: true
- CCC(=O)O[C@@]1(C(=O)CCl)[C@@H](C)C[C@@H]2[C@H]3CCC4=CC(=O)C=C[C@@]4(C)[C@]3(F)[C@@H](O)C[C@@]21C: false
- CNNCc1ccc(C(=O)NC(C)C)cc1: true
- CN(C)[C@@H]1C(=O)C(C(N)=O)=C(O)[C@]2(O)C(=O)C3=C(O)c4c(O)ccc(Cl)c4[C@H](O)[C@H]3C[C@@H]12: false
- CSC1=N/C(=C\c2ccc(C)cc2)C(=O)S1: true
- CSC1=N/C(=C\c2ccc3c(c2)OCO3)C(=O)S1: true
- COc1ccc(-n2ncc3c(NCC4CCCO4)ncnc32)cc1 (configuration not stated): true
